Origin of measurements: ChEMBL document CHEMBL5143703

Experiment: Cytotoxicity against human MCF-10A cells assessed as inhibition of cell proliferation incubated for 72 hrs by MTT assay
Type: toxicity, cell-based
IC50 at 72 h by entry:
METRIC: IC50 at 72 h (µM)

• CN(C)CCN(C(=O)/C=C/c1c[nH]c2ccccc12)c1ccccn1 = 40.6
• COc1cc(/C=C/C(=O)N(CCN(C)C)c2ccccn2)cc(OC)c1OC = 45.5

---

System: MDA-MB-231
Assay: Antiproliferative activity against human MDA-MB-231 cells assessed as inhibition of cell proliferation incubated for 72 hrs by MTT assay
Assay type: functional, cell-based
Settings: MDA-MB-231, 72 h
pIC50: −log10 of the molar value.
METRIC: pIC50

* CN(C)CCN(C(=O)/C=C/c1c[nH]c2ccccc12)c1ccccn1 | 5.08
* CN(C)CCN(Cc1ccc(Cl)cc1)c1ccccn1 | 4.30
* COc1cc(/C=C/C(=O)N(CCN(C)C)c2ccccn2)ccc1O | 4.87
* Cc1nc(C)c(/C=C/C(=O)N(CCN(C)C)c2ccccn2)nc1C | 4.86
* COc1cc(/C=C/C(=O)N(CCN(C)C)c2ccccn2)cc(OC)c1OC | 5.03
